// provenance: patent US20060079497A1

biological target: HIV-RT (Human immunodeficiency virus type 1 group M subtype B); construct: 1 unit/mL of HIV-RT (Worthington Biochemical Corp., Freehold, N.J.); purchased Worthington Biochemical Corp., Freehold, N.J; experiment: Checkerboard combination of lavendamycin analogs with AZT-triphosphate in HIV-RT enzyme assay (Chou and Talalay); type: biochemical; details: analogue 0.5 μM + AZT 0.02 μM, Trial 2
So basically, if Combination index comes in under 0.9 it's Fulfilled, and if it's 0.9 or more it's Not fulfilled.

- COC(=O)c1nc(-c2ccc3c(n2)C(=O)C(NC(C)=O)=CC3=O)c2[nH]c3ccccc3c2c1C [Compound 11, 7-acetyllavendamycin methyl ester]: Fulfilled
- CC(=O)NC1=CC(=O)c2ccc(-c3nc(C(N)=O)cc4c3[nH]c3ccccc34)nc2C1=O [Compound 16, 7-N-Acetyldemethyllavendamycin Amide]: Fulfilled
- CCCCOC(=O)c1cc2c([nH]c3ccccc32)c(-c2ccc3c(n2)C(=O)C(NC(=O)CCC)=CC3=O)n1 [Compound 12]: Not fulfilled
- CC(=O)NC1=CC(=O)c2ccc(-c3nc(C(=O)O)cc4c3[nH]c3ccccc34)nc2C1=O [Compound 18, 7-N-Acetyldemethyllavendamycin]: Not fulfilled

---

Molecular target: HIV-RT (Human immunodeficiency virus type 1 group M subtype B, UniProt P04585)
Construct: 1 unit/mL of HIV-RT (Worthington Biochemical Corp., Freehold, N.J.); purchased Worthington Biochemical Corp., Freehold, N.J
Assay: Checkerboard combination of lavendamycin analogs with AZT-triphosphate in HIV-RT enzyme assay (Chou and Talalay)
Type: biochemical
Conditions: analogue 1.5 μM + AZT 0.01 μM, Trial 2
Source text: […] The assay procedure described below is adapted from Okada et al. (Okada, H.; Mukai, H.; Inouye, Y; Nakamura, S. “Biological Properties of Streptonigrin Derivatives II. Inhibition of Reverse Transcriptase Activity,” J. Antibiot., 1986, 39, 306-308). […] For each assay, the reaction mixture containing 8× buffer, double distilled H2O, ^3HTTP, template-primer and HIV-RT was pre-mixed in a 15-mL sterile tube in quantities required for the particular experiment. […]
measurement_name: Combination index

* CCCCCCCCOC(=O)c1cc2c([nH]c3ccccc32)c(-c2ccc3c(n2)C(=O)C(N)=CC3=O)n1 [Compound 20, Demethyllavendamycin n-Octyl Ester] | 0.69
* CC(=O)NC1=CC(=O)c2ccc(-c3nc(C(=O)O)cc4c3[nH]c3ccccc34)nc2C1=O [Compound 18, 7-N-Acetyldemethyllavendamycin] | 0.82
* CCCCOC(=O)c1cc2c([nH]c3ccccc32)c(-c2ccc3c(n2)C(=O)C(NC(=O)CCC)=CC3=O)n1 [Compound 12] | 0.91

---

Overview of reported Combination index across a group of compounds:
biological target: HIV-RT (Human immunodeficiency virus type 1 group M subtype B, UniProt P04585); construct: 1 unit/mL of HIV-RT (Worthington Biochemical Corp., Freehold, N.J.); purchased Worthington Biochemical Corp., Freehold, N.J; assay: Checkerboard combination of lavendamycin analogs with AZT-triphosphate in HIV-RT enzyme assay (Chou and Talalay); format: biochemical; details: analogue 0.5 μM + AZT 0.01 μM, Trial 2
measurement_name: Combination index

• CCCCOC(=O)c1cc2c([nH]c3ccccc32)c(-c2ccc3c(n2)C(=O)C(NC(=O)CCC)=CC3=O)n1 = 0.76
• CC(=O)NC1=CC(=O)c2ccc(-c3nc(C(=O)O)cc4c3[nH]c3ccccc34)nc2C1=O = 0.50
• COC(=O)c1nc(-c2ccc3c(n2)C(=O)C(NC(C)=O)=CC3=O)c2[nH]c3ccccc3c2c1C = 0.76
• CC(=O)NC1=CC(=O)c2ccc(-c3nc(C(N)=O)cc4c3[nH]c3ccccc34)nc2C1=O [Compound 16, 7-N-Acetyldemethyllavendamycin Amide] = 0.70
• CCCCCCCCOC(=O)c1cc2c([nH]c3ccccc32)c(-c2ccc3c(n2)C(=O)C(N)=CC3=O)n1 = 0.61

---

Let's look at some compounds and their measured Combination index.
molecular target: HIV-RT (Human immunodeficiency virus type 1 group M subtype B, UniProt P04585); construct: 1 unit/mL of HIV-RT (Worthington Biochemical Corp., Freehold, N.J.); purchased Worthington Biochemical Corp., Freehold, N.J; experiment: Checkerboard combination of lavendamycin analogs with AZT-triphosphate in HIV-RT enzyme assay (Chou and Talalay); type: biochemical; settings: analogue 0.25 μM + AZT 0.01 μM, Trial 1
measurement_name: Combination index

• CC(=O)NC1=CC(=O)c2ccc(-c3nc(C(N)=O)cc4c3[nH]c3ccccc34)nc2C1=O [Compound 16, 7-N-Acetyldemethyllavendamycin Amide] = 0.85
• CCCCOC(=O)c1cc2c([nH]c3ccccc32)c(-c2ccc3c(n2)C(=O)C(NC(=O)CCC)=CC3=O)n1 = 0.58
• CCCCCCCCOC(=O)c1cc2c([nH]c3ccccc32)c(-c2ccc3c(n2)C(=O)C(N)=CC3=O)n1 = 0.77
• COC(=O)c1nc(-c2ccc3c(n2)C(=O)C(NC(C)=O)=CC3=O)c2[nH]c3ccccc3c2c1C = 0.94
• CC(=O)NC1=CC(=O)c2ccc(-c3nc(C(=O)O)cc4c3[nH]c3ccccc34)nc2C1=O = 0.44

---

Biological target: HIV-RT (Human immunodeficiency virus type 1 group M subtype B)
Construct: 1 unit/mL of HIV-RT (Worthington Biochemical Corp., Freehold, N.J.); purchased Worthington Biochemical Corp., Freehold, N.J
Assay: Checkerboard combination of lavendamycin analogs with AZT-triphosphate in HIV-RT enzyme assay (Chou and Talalay)
Format: biochemical
Settings: analogue 0.25 μM + AZT 0.01 μM, Trial 2
Text: […] The assay procedure described below is adapted from Okada et al. (Okada, H.; Mukai, H.; Inouye, Y; Nakamura, S. “Biological Properties of Streptonigrin Derivatives II. Inhibition of Reverse Transcriptase Activity,” J. Antibiot., 1986, 39, 306-308). […] For each assay, the reaction mixture containing 8× buffer, double distilled H2O, ^3HTTP, template-primer and HIV-RT was pre-mixed in a 15-mL sterile tube in quantities required for the particular experiment. […]
measurement_name: Combination index

- CCCCCCCCOC(=O)c1cc2c([nH]c3ccccc32)c(-c2ccc3c(n2)C(=O)C(N)=CC3=O)n1: 0.77
- CC(=O)NC1=CC(=O)c2ccc(-c3nc(C(N)=O)cc4c3[nH]c3ccccc34)nc2C1=O [Compound 16, 7-N-Acetyldemethyllavendamycin Amide]: 1.18
- CCCCOC(=O)c1cc2c([nH]c3ccccc32)c(-c2ccc3c(n2)C(=O)C(NC(=O)CCC)=CC3=O)n1: 0.58
- CC(=O)NC1=CC(=O)c2ccc(-c3nc(C(=O)O)cc4c3[nH]c3ccccc34)nc2C1=O: 0.45
- COC(=O)c1nc(-c2ccc3c(n2)C(=O)C(NC(C)=O)=CC3=O)c2[nH]c3ccccc3c2c1C: 0.89

---

assay: Cytotoxicity assay (MTT), human lymphocytic cell lines, pooled data; type: cell-based; settings: H-9 and CEM inhibited by 50%, read-out: Mean CC50 (Human Cell Lines) ± SEM (no. of expts)
Measured CC50 at 48 h of individual entries
measurement_name: CC50 at 48 h (µM)

• CCCCCCCCOC(=O)c1cc2c([nH]c3ccccc32)c(-c2ccc3c(n2)C(=O)C(N)=CC3=O)n1 [Compound 20, Demethyllavendamycin n-Octyl Ester] = 47
• CCCCOC(=O)c1cc2c([nH]c3ccccc32)c(-c2ccc3c(n2)C(=O)C(NC(=O)CCC)=CC3=O)n1 [Compound 12] = 50

---

target: HIV-RT (Human immunodeficiency virus type 1 group M subtype B, UniProt P04585); construct: 1 unit/mL of HIV-RT (Worthington Biochemical Corp., Freehold, N.J.); purchased Worthington Biochemical Corp., Freehold, N.J; assay: Checkerboard combination of lavendamycin analogs with AZT-triphosphate in HIV-RT enzyme assay (Chou and Talalay); type: biochemical; details: analogue 1.5 μM + AZT 0.02 μM, Trial 1
Think of 1 as a floor: if Combination index stands on it or above, it is satisfied; beneath it, not satisfied.

• CCCCOC(=O)c1cc2c([nH]c3ccccc32)c(-c2ccc3c(n2)C(=O)C(NC(=O)CCC)=CC3=O)n1 [Compound 12] = satisfied
• COC(=O)c1nc(-c2ccc3c(n2)C(=O)C(NC(C)=O)=CC3=O)c2[nH]c3ccccc3c2c1C [Compound 11, 7-acetyllavendamycin methyl ester] = satisfied
• CC(=O)NC1=CC(=O)c2ccc(-c3nc(C(=O)O)cc4c3[nH]c3ccccc34)nc2C1=O [Compound 18, 7-N-Acetyldemethyllavendamycin] = satisfied
• CCCCCCCCOC(=O)c1cc2c([nH]c3ccccc32)c(-c2ccc3c(n2)C(=O)C(N)=CC3=O)n1 [Compound 20, Demethyllavendamycin n-Octyl Ester] = not satisfied

---

Biological target: HIV-RT (Human immunodeficiency virus type 1 group M subtype B)
Construct: 1 unit/mL of HIV-RT (Worthington Biochemical Corp., Freehold, N.J.); purchased Worthington Biochemical Corp., Freehold, N.J
Assay: Checkerboard combination of lavendamycin analogs with AZT-triphosphate in HIV-RT enzyme assay (Chou and Talalay)
Assay type: biochemical
Conditions: analogue 0.25 μM + AZT 0.02 μM, Trial 1
Source text: […] The assay procedure described below is adapted from Okada et al. (Okada, H.; Mukai, H.; Inouye, Y; Nakamura, S. “Biological Properties of Streptonigrin Derivatives II. Inhibition of Reverse Transcriptase Activity,” J. Antibiot., 1986, 39, 306-308). […] For each assay, the reaction mixture containing 8× buffer, double distilled H2O, ^3HTTP, template-primer and HIV-RT was pre-mixed in a 15-mL sterile tube in quantities required for the particular experiment. […]
Below, each entry is listed alongside its reported Combination index.
measurement_name: Combination index

- CC(=O)NC1=CC(=O)c2ccc(-c3nc(C(=O)O)cc4c3[nH]c3ccccc34)nc2C1=O: 0.59
- CC(=O)NC1=CC(=O)c2ccc(-c3nc(C(N)=O)cc4c3[nH]c3ccccc34)nc2C1=O [Compound 16, 7-N-Acetyldemethyllavendamycin Amide]: 0.67
- COC(=O)c1nc(-c2ccc3c(n2)C(=O)C(NC(C)=O)=CC3=O)c2[nH]c3ccccc3c2c1C: 0.90
- CCCCCCCCOC(=O)c1cc2c([nH]c3ccccc32)c(-c2ccc3c(n2)C(=O)C(N)=CC3=O)n1: 0.97
- CCCCOC(=O)c1cc2c([nH]c3ccccc32)c(-c2ccc3c(n2)C(=O)C(NC(=O)CCC)=CC3=O)n1: 0.59
